- System: DUNE cells
- TEST_DETAILS: Real-time qPCR of CSC and neuroendocrine biomarkers in DUNE cells
- Format: cell-based
- RUN_PARAMETERS: 20 uM, 48 h
MEASURED_PROPERTY: expression of CSC markers (IGF2BP1, CDH2, FOXD3, HEY1, ALDH1A2, CDK6, FOXC1, SIX2, ID4)

| COMPOUND | SYSTEM | ENDPOINT_RESULT |
| --- | --- | --- |
| O=c1cccc(-c2nc3cc(F)c(O)cc3c(=O)[nH]2)[nH]1 [Ln115] | DUNE cells | reductions |
| O=c1[nH]c(Nc2ccccc2O)cs1 [Ln15] | DUNE cells | reductions |
| CCc1cc(=O)[nH]c(Nc2cc(Cl)ccc2O)n1 [Ln7] | DUNE cells | reductions |
